# neutralisation IC50, Wuhan-Hu-1 pseudovirus annotations
# tested target: SARS-CoV-2 Wuhan-Hu-1 RBD (SARS-CoV-2, Wuhan-Hu-1 (GenBank …, UniProt P0DTC2))
# procedure summary: cell-based or functional assay
quantity: neutralisation IC50, Wuhan-Hu-1 pseudovirus (µg/mL)

JR189 (antibody, V domains shown) VH: EVQLVESGGGLIQPGGSLRLSCAASGFNVNSNYINWVRQAPGKGLEWVSVIYSSGKTYFADSVKGRFTISRDNSKNTLYLQMNILRAEDTAVYYCATTTTVTPIWGQGTLVTVSS VL: DIQMTQSPSALSASVGDRVTFTCRASQDIRNYLGWYQQKPGEAPKLLVYAASSLQSGVPSRFSGSGSGTDFTLTISSLQPEDFATYYCLQDYNYPWTFGQGTKVEIK : 0.0077
JR173 (antibody, V domains shown) VH: EVQLVESGGGLVQPGRSLRLSCAASGFTFDDYAMHWVRQAPGKGLEWVSGISWNSGRKGYADSVKGRFTISRDNAKNSLHLQMNSLRAEDTALYYCAKDIQEAIEVSSIGFDYWGQGTLVTVSS VL: QSVLTQPPSVSGAPGQRVTISCTGSSSNIGAGYDVHWYQQLPGTAPKLLIYGNSNRPSGVPDRFSGSKSGTSASLAITGLQAEDEADYYCQSYDSSLSGYAVFGGGTQLTVL : 0.0166
